Biological target: T1, human monomeric EGFR (EGFR.mmh) (human, UniProt P00533 25-647)
T1 construct: Soluble monomeric EGFR construct
Assay: SPR 37C, mAb captured by anti-human Fc, EGFR.mmh analyte
measurement.kind: pKd
Answers are plain numbers, as −log10 of the molar value.

// query I have this binder here, H1H116N (antibody, human IgG1, V domains shown, Tested in human IgG1 Fc format (H1H); also called H1M116N) VH: QVQLQESGPGLVKPSQTLSLTCTVSGGSVSSGDYYWSWIRQHPGKGLDWIGHIYYSGSTYYNPSLKSRVTISLDTSKNQFSLKLNSVTAADTAVYYCARTAITGTMDYWGQGTLVTVSS VL: EIVMTQSPATLSVSAGERATLSCRASQSVSSNLAWFQQKPGQAPRLLIYDASTRATGIPARFSGSGSGTEFTLIISSLQSEDFALYYCQQYNSWWTFGQGTKVEIK , and I need its recorded pKd.
// result 8.28

Source: patent US20180036405A1
